# Test system: IL-6
# ASSAY_EXPLANATION: Inhibition of IL-6 production by stimulated human peripheral blood leukocytes in vitro
# Type: cell-based
# EXPERIMENTAL_CONTEXT: PBL, zymosan stimulated, compound 10 μM
Here, each record is paired with measured Percentage of inhibition of IL-6 production data.

CCC1OC(=O)C(C)C(OC2CC(C)(OC)C(O)C(C)O2)C(C)C(OC2OC(C)CC(N(C)C)C2O)C(C)(O)CC(C)CN(C(=S)Nc2cccc(F)c2)C(C)C(O)C1(C)O (stereo not drawn); 59%
CC[C@H]1OC(=O)[C@H](C)C2O[C@@](C)(C[C@@H](C)CN(C(=O)NCc3ccccc3)[C@H](C)[C@@H](O)[C@]1(C)O)[C@H](O[C@@H]1O[C@H](C)C[C@H](N(C)C)[C@H]1O)[C@H]2C; 72%

Okay, next one:
Which Percentage of inhibition of IL-6 production value belongs to `CC[C@H]1OC(=O)[C@H](C)[C@@H](O[C@H]2C[C@@](C)(OC)[C@@H](O)[C@H](C)O2)[C@H](C)[C@@H](O[C@@H]2O[C@H](C)C[C@H](N(C)C)[C@H]2O)[C@](C)(O)C[C@@H](C)CN(C(=S)Nc2ccc(Br)cc2)[C@H](C)[C@@H](O)[C@]1(C)O` ? 73%

----------
# System: IL-6
# ASSAY_EXPLANATION: Inhibition of IL-6 production by stimulated human peripheral blood leukocytes in vitro
# Type: cell-based
# EXPERIMENTAL_CONTEXT: Homo sapiens, Leukocyte, PBL, PMA stimulated, compound 10 μM; read-out: Percentage of inhibition of IL-6 production
READOUT: inhibition at 10 µM (%)
Reply numerically in %, unit not repeated.

Consider the worked cases shown below.
CC[C@H]1OC(=O)[C@H](C)[C@@H](O[C@H]2C[C@@](C)(OC)[C@@H](O)[C@H](C)O2)[C@H](C)[C@@H](O[C@@H]2O[C@H](C)C[C@H](N(C)C)[C@H]2O)[C@](C)(O)C[C@@H](C)CN(C(=S)Nc2ccccc2F)[C@H](C)[C@@H](O)[C@]1(C)O; 44
CC[C@H]1OC(=O)[C@H](C)[C@@H](O)[C@H](C)[C@@H](O[C@@H]2O[C@H](C)C[C@H](N(C)C)[C@H]2O)[C@](C)(O)C[C@@H](C)CN(C(=O)Nc2cccc(C(F)(F)F)c2)[C@H](C)[C@@H](O)[C@]1(C)O; 84
CC[C@H]1OC(=O)[C@H](C)[C@@H](O[C@H]2C[C@@](C)(OC)[C@@H](O)[C@H](C)O2)[C@H](C)[C@@H](O[C@@H]2O[C@H](C)C[C@H](N(C)C)[C@H]2O)[C@](C)(OC)C[C@@H](C)C(=O)[C@H](C)[C@@H](O)[C@]1(C)O [Clarithromycin, clarithromycin, reference compound]; 0

Okay, next one:
Request body: readout inhibition at 10 µM, system IL-6, query CC[C@H]1OC(=O)[C@H](C)[C@@H](O[C@H]2C[C@@](C)(OC)[C@@H](O)[C@H](C)O2)[C@H](C)[C@@H](O[C@@H]2O[C@H](C)C[C@H](N(C)C)[C@H]2O)[C@](C)(O)C[C@@H](C)CN(C)[C@H](C)[C@@H](O)[C@]1(C)O [Azithromycin, azithromycin, reference compound] . Return the value. 0

meta.source: patent US20080200403A1
